- System: Klebsiella pneumoniae
- test context: Concentration 20 uM; ASSAY_TEST Inhibition of Bacterial Growth; detection method Absorption (OD600); MEDIA CAMHB; plate type 384well; NBS; CORNING #3640; time 18 hr
- Description: Antibacterial activity against Klebsiella pneumoniae MDR ATCC 70063 (CO-ADD:GN_003); MIC in CAMBH media using NBS plates, by OD(600)
Potency and affinity values are given separately.
result type: Inhibition (%)
// note: answer is a bare numeric in %

Examples with their reported Inhibition follow.
N#Cc1ccc(NC2c3ccccc3CC2O)cc1 (configuration not stated) | 3.05
CSc1cccc(NC(=O)OC2CCCCCCCCCCC2)c1 | 20.05
CCC(CO)Nc1nc2ccc(Cl)cc2c2ccccc12 (configuration not stated) | 20.8
Nn1c(Cc2ccccc2)nnc1Cc1ccccc1 | 11.84
Cc1cc(NC(=O)Nc2cc(Cl)ccc2C)no1 | 4.74

Lab note: next compound to report on.
Which Inhibition is reported for this compound? `C=C(C)c1nc(Oc2ccccc2)nc(Oc2ccccc2)n1`
11.06
